# tested-on: T1, human glycophorin A on human red blood cells or red blood cell membranes (human, UniProt P02724 20-150)
# T1 construct: whole, on cells; also called hRBC; human RBC membranes
# T1 sequence (looked up): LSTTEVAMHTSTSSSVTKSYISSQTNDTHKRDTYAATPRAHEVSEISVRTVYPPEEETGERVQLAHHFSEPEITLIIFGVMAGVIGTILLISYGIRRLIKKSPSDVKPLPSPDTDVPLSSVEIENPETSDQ
# method: scFv 7 ug/ml on intact human RBC, unbound scFv by ELISA; pre-dilution
quantity-kind: percentage of input scFv antibody bound (%)
Your answer is read as %, so omit the unit and give the number.

Inquiry: Returns the measured percentage of input scFv antibody bound for the input binder. Input: TPP-7792 scFv with C-terminal 6xHIS tag (scFv) scFv: DIQLTQSPSFLSASVGDRVTITCRASSSVRYIYWFQQKPGKAPKLLIYATSFRQSGVPSRFSGSGSGTEYTLTISSLQPEDFATYYCHQRNSFPYTFGQGTKLEIKGGGGSGGGGSGGGGSGGGGSEVQLVQSGAEVKKPGASVKVSCKASGYTFTTYAIHWVRQAPGQGLEWMGYINPSSGYTRYNPKFKGRVTMTRDKSTSTAYMELRSLRSDDTAVYYCWTGTRDYWGQGTTVTVSSHHHHHH
Reply text: 100

Inquiry: Quick one: percentage of input scFv antibody bound of TPP-7781 scFv with C-terminal 6xHIS tag (scFv) scFv: DIQLTQSPSFLSASVGDRVTITCRASSSVRYIYWFQQKPGKAPKLLIYATSTLQSGVPSRFSGSGSGTEYTLTISSLQPEDFATYYCHQRNSFPYTFGQGTKLEIKGGGGSGGGGSGGGGSGGGGSEVQLVQSGAEVKKPGASVKVSCKASGYTFTTYTIHWVRQAPGQGLEWMGYINPKSGWTRYNPKFKGRVTMTRDKSTSTAYMELRSLRSDDTAVYYCQTGTRDYWGQGTTVTVSSHHHHHH ?
Reply text: 97

Inquiry: Fill in: percentage of input scFv antibody bound of TPP-7778 scFv with C-terminal 6xHIS tag (scFv) scFv: DIQLTQSPSFLSASVGDRVTITCRASSSVRYIYWFQQKPGKAPKLLIYATSTLQSGVPSRFSGSGSGTEYTLTISSLQPEDFATYYCHQRNSFPYTFGQGTKLEIKGGGGSGGGGSGGGGSGGGGSEVQLVQSGAEVKKPGASVKVSCKASGYTFTTYAIHWVRQAPGQGLEWMGYINPSSGYTRYNPKFKHRVTMTRDKSTSTAYMELRSLRSDDTAVYYCQTGTRDYWGQGTTVTVSSHHHHHH is ___
Reply text: 98
